# experimental.details: Standard protocol for determination of kcat and KM (continuous spectrophotometric assay, Acetyl CoA hydrolysis at 235 nm)
# Format: biochemical
# condition.description: purified protein; about 23° C.; 20 mM HEPES pH 6.8, 10% ethylene glycol, 0.2 mM acetyl CoA
For each of the molecules below, state its Kcat.
Include the unit right after the number.

Ask: Can you look up the measured Kcat of SEQ ID NO: 451: GAT polypeptide (protein, 0_6H9, GAT polypeptide) MIEVKPINAEDTYELRHKILRPNQPIEACMYETDLLRGAFHLGGFYGGKLISIASFHQAEHSDLEGQKQYQLRGMATLEGYREQKAGSTLIRHAEEILRKKGANLLWCNARTSASGYYKKLGFSEQGEVFDTPPVGPHILMYKRLT for me?
Reply: 3.8 s⁻¹

Ask: Can you look up the measured Kcat of SEQ ID NO: 394: GAT polypeptide (protein, 6_20H5, GAT polypeptide) MIEVKPINAEDTYEIRHRILRPNQPLEACKYETDLLGGTFHLGGYYRGKLISIASFHQAEHSELEGQKQYQLRGMATLEGYREQKAGSTLIRHAEELLRKKGADLLWCNARTSASGYYKKLGFSEQGEVYDIPPIGPHILMYKKLT for me?
Reply: 0.325 s⁻¹

Ask: Can you look up the measured Kcat of SEQ ID NO: 323: GAT polypeptide (protein, 14_7H9, GAT polypeptide) MIEVKPINAEDTYEIRHRILRPNQPLEACKYETDLLGGTFHLGGYYRGKLVSIASFHQAEHPELEGQKQYQLRGMATLEGYREQKAGSTLIRHAEELLRKKGADLLWCNARTSASGYYKKLGFSEQGEVYDIPPVGPHILMYKKLT for me?
Reply: 1.07 s⁻¹

Ask: Can you look up the measured Kcat of SEQ ID NO: 439: GAT polypeptide (protein, 0_5B11, GAT polypeptide) MIEVKPINAEDTYELRHKILRPNQPIEACMYESDLLRGAFHLGGFYGGKLISIASFHQAEHSDLEGQKQYQLRGMATLEGYRDQKAGSTLIKHAEQLLRKRGADMLWCNARTSASGYYKKLGFSEQGEVFETPPVGPHILMYKKIT for me?
Reply: 3.65 s⁻¹

Ask: Can you look up the measured Kcat of SEQ ID NO: 408: GAT polypeptide (protein, 6_5F11, GAT polypeptide) MIEVKPINAEDTYEIRHRILRPNQPLEACMYETDLLGGTFHLGGYYRGKLISIASFHQAEHPELEGQKQYQLRGMATLEEYREQKAGSTLIRHAEELLRKKGADLLWCNARTSASGYYKKLGFSEQGEVHDIPPVGPHILMYKKLT for me?
Reply: 0.668 s⁻¹

Ask: Can you look up the measured Kcat of SEQ ID NO: 315: GAT polypeptide (protein, 14_4H8, GAT polypeptide) MIEVKPINAEDTYEIRHRILRPNQPLEACKYETDLLGSTFHLGGYYRGKLISIASFHQAEHPELEGQKQYQLRGMATLEGYREQKAGSTLIRHAEELLRKKGADLLWCNARTSASGYYKKLGFSEQGEVYDTPPVGPHILMYKKLT for me?
Reply: 3.313 s⁻¹

Ask: Can you look up the measured Kcat of SEQ ID NO: 353: GAT polypeptide (protein, 24E7, GAT polypeptide) MIEVKPINAEDTYEIRHRILRPNQPLEACKYETDLLGGTFHLGGYYRGKLISIASFHNAEHSELEGQKQYQLRGMATLEGYREQKAGSTLIRHAEELLRKKGADLLWCNARTSASGYYEKLGFSEQGEVYDIPPIGPHILMYKKLA for me?
Reply: 0.148 s⁻¹

Ask: Can you look up the measured Kcat of SEQ ID NO: 417: GAT polypeptide (protein, 7_2A11, GAT polypeptide) MIEVKPINAEDTYEIRHRILRPNQPLEACMYETDLLGGTFHLGGYYRGKLISIASFHQAEHSELEGQKQYQLRGMATLEGYREQKAGSTLIRHAEELLRKKGADLLWCNARTSASGYYKKLGFSEQGGVYDIPPVGPHILMYKKLT for me?
Reply: 0.78 s⁻¹

Ask: Can you look up the measured Kcat of SEQ ID NO: 419: GAT polypeptide (protein, 7_5C7, GAT polypeptide) MIEVKPINAEDTYEIRHRILRPNQPLEACMYETDLLGGTFHLGGYYRGKLISIASFHQAEHPELEGQKQYQLRGMATLEGYREQKVGSTLIRHAEELLRKKGADLLWCNARTSASGYYKKLGFSEQGGVYDIPPVGPHILMYKKLT for me?
Reply: 0.745 s⁻¹
